Data origin: ChEMBL document CHEMBL4177755

This listing pairs substances with measured MFC.
- Tested on: Candida albicans
- test_description: Fungicidal activity against Candida albicans isolated from alveolar fluid after 96 hrs
- Assay type: functional
- experimental_context: read-out: MFC99.9
Lab book: enter the figure in µM, no units written.

Solved entries (count: 5):
H-RWWRRWRRWWR-NH2	8
H-RLRLLLRLR-NH2	16
H-RWRWWWRWR-NH2	16
H-FFRRFRRFF-NH2	32
H-RIIRRIRRIIR-NH2	32

Task: Which MFC value is on record for H-RIRIIIRIR-NH2 ?
Output: 8

Task: Which MFC value is on record for H-RRFRFFFRFRR-NH2 ?
Output: 8

Task: Which MFC value is on record for H-RRWRWWWRWRR-NH2 ?
Output: 8

Task: Which MFC value is on record for H-RLLRRLRRLLR-NH2 ?
Output: 16

Task: Which MFC value is on record for H-WWRRWRRWW-NH2 ?
Output: 16

Task: Which MFC value is on record for H-RFFRRFRRFFR-NH2 ?
Output: 16

Task: Which MFC value is on record for H-RRIRIIIRIRR-NH2 ?
Output: 4

Task: Which MFC value is on record for H-RFRFFFRFR-NH2 ?
Output: 16

Task: Which MFC value is on record for H-RRLRLLLRLRR-NH2 ?
Output: 8

* * *

This listing pairs substances with measured MIC.
- Tested on: Candida albicans
- test_description: Antifungal activity against Candida albicans cgmcc 2.2086 in presence of NaCl by broth dilution method
- Assay type: functional
Lab book: enter the figure in µM, no units written.

Solved entries (count: 8):
H-RWWRRWRRWWR-NH2	16
H-WWRRWRRWW-NH2	16
H-RRIRIIIRIRR-NH2	4
H-RRLRLLLRLRR-NH2	64
H-RFRFFFRFR-NH2	32
H-RLRLLLRLR-NH2	32
H-RIIRRIRRIIR-NH2	64
H-RRFRFFFRFRR-NH2	16

Task: Which MIC value is on record for H-RIRIIIRIR-NH2 ?
Output: 16

Task: Which MIC value is on record for H-LLRRLRRLL-NH2 ?
Output: 64

Task: Which MIC value is on record for H-RRWRWWWRWRR-NH2 ?
Output: 8

Task: Which MIC value is on record for H-IIRRIRRII-NH2 ?
Output: 64

Task: Which MIC value is on record for H-RLLRRLRRLLR-NH2 ?
Output: 16

Task: Which MIC value is on record for H-RWRWWWRWR-NH2 ?
Output: 16

Task: Which MIC value is on record for H-FFRRFRRFF-NH2 ?
Output: 16

Task: Which MIC value is on record for H-RFFRRFRRFFR-NH2 ?
Output: 32

* * *

- System: Candida tropicalis
- test_description: Antifungal activity against Candida tropicalis cgmcc 2.1975 after 48 hrs by broth microdilution method
- Assay type: functional
- experimental_context: cgmcc 2.1975, 48 h
measured_parameter: MIC95 (µM)
Lab book: enter the figure in µM, no units written.

Solved entries (count: 6):
H-RIIRRIRRIIR-NH2	1
H-WWRRWRRWW-NH2	4
H-FFRRFRRFF-NH2	4
H-RFRFFFRFR-NH2	2
H-RRLRLLLRLRR-NH2	2
H-RFFRRFRRFFR-NH2	2

Task: Param readout = MIC95; param system = Candida tropicalis; param query = H-IIRRIRRII-NH2 ; response: value
Output: 4

Task: Param readout = MIC95; param system = Candida tropicalis; param query = H-RRWRWWWRWRR-NH2 ; response: value
Output: 2

Task: Param readout = MIC95; param system = Candida tropicalis; param query = H-LLRRLRRLL-NH2 ; response: value
Output: 4

* * *

This listing pairs substances with measured MIC95.
- Test system: Escherichia coli
- test_description: Antibacterial activity against Escherichia coli 1005 after 24 hrs
- Assay type: functional
- experimental_context: Escherichia coli, 1005, 24 h
Lab book: enter the figure in µM, no units written.

Solved entries (count: 3):
H-RFFRRFRRFFR-NH2	8
H-IIRRIRRII-NH2	16
H-RRWRWWWRWRR-NH2	4

Task: Which MIC95 value is on record for H-FFRRFRRFF-NH2 ?
Output: 8

Task: Which MIC95 value is on record for H-RRFRFFFRFRR-NH2 ?
Output: 4

Task: Which MIC95 value is on record for H-RIRIIIRIR-NH2 ?
Output: 4

Task: Which MIC95 value is on record for H-RLLRRLRRLLR-NH2 ?
Output: 4

Task: Which MIC95 value is on record for H-RWRWWWRWR-NH2 ?
Output: 2

Task: Which MIC95 value is on record for H-RFRFFFRFR-NH2 ?
Output: 4

* * *

- test_description: Bactericidal activity against Salmonella pullorum ATCC 7913
- Format: functional, Salmonella enterica subsp. enterica serovar Pullorum
- experimental_context: Salmonella enterica, read-out: MBC99.9
Label TRUE when MBC < 8 µM; otherwise FALSE.

H-RLLRRLRRLLR-NH2	FALSE
H-RRWRWWWRWRR-NH2	TRUE
H-RIIRRIRRIIR-NH2	FALSE
H-IIRRIRRII-NH2	FALSE
H-RIRIIIRIR-NH2	FALSE

Task: Consider H-LLRRLRRLL-NH2 . Does its MBC lie strictly below 8 µM?
Output: FALSE

Task: Consider H-WWRRWRRWW-NH2 . Does its MBC lie strictly below 8 µM?
Output: FALSE

Task: Consider H-RRIRIIIRIRR-NH2 . Does its MBC lie strictly below 8 µM?
Output: TRUE

Task: Consider H-RRFRFFFRFRR-NH2 . Does its MBC lie strictly below 8 µM?
Output: TRUE

Task: Consider H-FFRRFRRFF-NH2 . Does its MBC lie strictly below 8 µM?
Output: FALSE

* * *

- test_description: Cytotoxicity against mouse RAW264.7 cells assessed as cell viability at 2 to 32 uM after 24 hrs by MTT assay relative to control
- Assay type: cell-based
- experimental_context: read-out: Activity
This listing pairs substances with measured viability at 24 h, up to 32 µM.

Task: Which viability at 24 h, up to 32 µM value is on record for H-RWWRRWRRWWR-NH2 ?
Output: 70 to 80%

Task: Which viability at 24 h, up to 32 µM value is on record for H-WWRRWRRWW-NH2 ?
Output: 70 to 80%

* * *

- System: Pichia kudriavzevii
- test_description: Fungicidal activity against Candida krusei cgmcc 2.1857 after 96 hrs
- Assay type: functional
- experimental_context: cgmcc 2.1857, 96 h, read-out: MFC99.9
This listing pairs substances with measured MFC.
Answer as a quantity: numeral, then unit.

Solved entries (count: 3):
H-RRFRFFFRFRR-NH2	2 µM
H-RFFRRFRRFFR-NH2	4 µM
H-RLLRRLRRLLR-NH2	8 µM

Task: Which MFC value is on record for H-RLRLLLRLR-NH2 ?
Output: 8 µM

Task: Which MFC value is on record for H-RIIRRIRRIIR-NH2 ?
Output: 8 µM

Task: Which MFC value is on record for H-RRLRLLLRLRR-NH2 ?
Output: 8 µM

Task: Which MFC value is on record for H-RRIRIIIRIRR-NH2 ?
Output: 2 µM

Task: Which MFC value is on record for H-RWWRRWRRWWR-NH2 ?
Output: 4 µM

Task: Which MFC value is on record for H-WWRRWRRWW-NH2 ?
Output: 4 µM

Task: Which MFC value is on record for H-RWRWWWRWR-NH2 ?
Output: 8 µM

Task: Which MFC value is on record for H-FFRRFRRFF-NH2 ?
Output: 4 µM

Task: Which MFC value is on record for H-RRWRWWWRWRR-NH2 ?
Output: 2 µM

* * *

- Test system: Pichia kudriavzevii
- test_description: Fungicidal activity against Candida krusei cgmcc 2.1857 after 96 hrs
- Format: functional
- experimental_context: cgmcc 2.1857, 96 h, read-out: MFC99.9
measured_parameter: MFC (µM)
Lab book: enter the figure in µM, no units written.

H-IIRRIRRII-NH2	16
H-LLRRLRRLL-NH2	8
H-RIRIIIRIR-NH2	4

Here is another substance to look at.
Task: Param readout = MFC; param system = Pichia kudriavzevii; param query = H-RFRFFFRFR-NH2 ; response: value
Output: 4
